For each record, write down the corresponding total protein half-life in vivo.
# Protocol Summary: total protein half-life in vivo (active degradation + dilution); higher = more stable protein
# Experimental Setup: wild type E. coli NCM3722; growth: N-lim chemostat; doubling time 6 h
Report the figure in h without appending any unit label.

Dear colleague, I am looking for the recorded total protein half-life in vivo of the following sequence: `MKLAVYSTKQYDKKYLQQVNESFGFELEFFDFLLTEKTAKTANGCEAVCIFVNDDGSRPVLEELKKHGVKYIALRCAGFNNVDLDAAKELGLKVVRVPAYDPEAVAEHAIGMMMTLNRRIHRAYQRTRDANFSLEGLTGFTMYGKTAGVIGTGKIGVAMLRILKGFGMRLLAFDPYPSAAALELGVEYVDLPTLFSESDVISLHCPLTPENYHLLNEAAFEQMKNGVMIVNTSRGALIDSQAAIEALKNQKIGSLGMDVYENERDLFFEDKSNDVIQDDVFRRLSACHNVLFTGHQAFLTAEALTSISQTTLQNLSNLEKGETCPNELV`
4.64

Dear colleague, I am looking for the recorded total protein half-life in vivo of the following sequence: `MSDTTELVDLAVIFPDLEIELKYACADNITGKAIYQQARCLLHKDAITALAKSISIAQLSGLQLVIYDAYRPQQAQAMLWQACPDPQYVVDVTVGSNHSRGTAIDLTLRDEHGNILDMGAGFDEMHERSHAYHPSVPPAAQRNRLLLNAIMTGGGFVGISSEWWHFELPQAASYPLLADQFSCFISPGTQHVS`
2.72

Dear colleague, I am looking for the recorded total protein half-life in vivo of the following sequence: MTDKLTSLRQYTTVVADTGDIAAMKLYQPQDATTNPSLILNAAQIPEYRKLIDDAVAWAKQQSNDRAQQIVDATDKLAVNIGLEILKLVPGRISTEVDARLSYDTEASIAKAKRLIKLYNDAGISNDRILIKLASTWQGIRAAEQLEKEGINCNLTLLFSFAQARACAEAGVFLISPFVGRILDWYKANTDKKEYAPAEDPGVVSVSEIYQYYKEHGYETVVMGASFRNIGEILELAGCDRLTIAPALLKELAESEGAIERKLSYTGEVKARPARITESEFLWQHNQDPMAVDKLAEGIRKFAIDQEKLEKMIGDLL [P0A870]
5.14

Dear colleague, I am looking for the recorded total protein half-life in vivo of the following sequence: `MESGHRFDAQTLHSFIQAVFRQMGSEEQEAKLVADHLIAANLAGHDSHGIGMIPSYVRSWSQGHLQINHHAKTVKEAGAAVTLDGDRAFGQVAAHEAMALGIEKAHQHGIAAVALHNSHHIGRIGYWAEQCAAAGFVSIHFVSVVGIPMVAPFHGRDSRFGTNPFCVVFPRKDNFPLLLDYATSAIAFGKTRVAWHKGVPVPPGCLIDVNGVPTTNPAVMQESPLGSLLTFAEHKGYALAAMCEILGGALSGGKTTHQETLQTSPDAILNCMTTIIINPELFGAPDCNAQTEAFAEWVKASPHDDDKPILLPGEWEVNTRRERQKQGIPLDAGSWQAICDAARQIGMPEETLQAFCQQLAS`
4.46

Dear colleague, I am looking for the recorded total protein half-life in vivo of the following sequence: MATIKDVAKRANVSTTTVSHVINKTRFVAEETRNAVWAAIKELHYSPSAVARSLKVNHTKSIGLLATSSEAAYFAEIIEAVEKNCFQKGYTLILGNAWNNLEKQRAYLSMMAQKRVDGLLVMCSEYPEPLLAMLEEYRHIPMVVMDWGEAKADFTDAVIDNAFEGGYMAGRYLIERGHREIGVIPGPLERNTGAGRLAGFMKAMEEAMIKVPESWIVQGDFEPESGYRAMQQILSQPHRPTAVFCGGDIMAMGALCAADEMGLRVPQDVSLIGYDNVRNARYFTPALTTIHQPKDSLGETAFNMLLDRIVNKREEPQSIEVHPRLIERRSVADGPFRDYRR [P0ACP7]
5.02

Dear colleague, I am looking for the recorded total protein half-life in vivo of the following sequence: `MPPRALLLVDLQNDFCAGGALAVPEGDSTVDVANRLIDWCQSRGEAVIASQDWHPANHGSFASQHGVEPYTPGQLDGLPQTFWPDHCVQNSEGAQLHPLLHQKAIAAVFHKGENPLVDSYSAFFDNGRRQKTSLDDWLRDHEIDELIVMGLATDYCVKFTVLDALQLGYKVNVITDGCRGVNIQPQDSAHAFMEMSAAGATLYTLADWEETQG`
4.16

Dear colleague, I am looking for the recorded total protein half-life in vivo of the following sequence: `MDKSKRHLAWWVVGLLAVAAIVAWWLLRPAGVPEGFAVSNGRIEATEVDIASKIAGRIDTILVKEGKFVREGEVLAKMDTRVLQEQRLEAIAQIKEAQSAVAAAQALLEQRQSETRAAQSLVNQRQAELDSVAKRHTRSRSLAQRGAISAQQLDDDRAAAESARAALESAKAQVSASKAAIEAARTNIIQAQTRVEAAQATERRIAADIDDSELKAPRDGRVQYRVAEPGEVLAAGGRVLNMVDLSDVYMTFFLPTEQAGTLKLGGEARLILDAAPDLRIPATISFVASVAQFTPKTVETSDERLKLMFRVKARIPPELLQQHLEYVKTGLPGVAWVRVNEELPWPDDLVVRLPQ`
6.37

Dear colleague, I am looking for the recorded total protein half-life in vivo of the following sequence: `MPFRSNNPITRDELLSRFFPQYHPVTTFNSGLSGGSFLIEHQGQRFVVRQPHDPDAPQSAFLRQYRALSQLPACIAPKPHLYLRDWMVVDYLPGAVKTYLPDTNELAGLLYYLHQQPRFGWRITLLPLLELYWQQSDPARRTVGWLRMLKRLRKAREPRPLRLSPLHMDVHAGNLVHSASGLKLIDWEYAGDGDIALELAAVWVENTEQHRQLVNDYATRAKIYPAQLWRQVRRWFPWLLMLKAGWFEYRWRQTGDQQFIRLADDTWRQLLIKQ`
6.24

Dear colleague, I am looking for the recorded total protein half-life in vivo of the following sequence: `MFDFASYHRAATLADAINLLADNPQAKLLAGGTDVLIQLHHHNDRYRHIVDIHNLAELRGITLAEDGSLRIGSATTFTQLIEDPITQRHLPALCAAATSIAGPQIRNVATYGGNICNGATSADSATPTLIYDAKLEIHSPRGVRFVPINGFHTGPGKVSLEHDEILVAFHFPPQPKEHAGSAHFKYAMRDAMDISTIGCAAHCRLDNGNFSELRLAFGVAAPTPIRCQHAEQTAQNAPLNLQTLEAISESVLQDVAPRSSWRASKEFRLHLIQTMTKKVISEAVAAAGGKLQ`
2.52

Dear colleague, I am looking for the recorded total protein half-life in vivo of the following sequence: `MTNNPLIPQSKLPQLGTTIFTQMSALAQQHQAINLSQGFPDFDGPRYLQERLAHHVAQGANQYAPMTGVQALREAIAQKTERLYGYQPDADSDITVTAGATEALYAAITALVRNGDEVICFDPSYDSYAPAIALSGGIVKRMALQPPHFRVDWQEFAALLSERTRLVILNTPHNPSATVWQQADFAALWQAIAGHEIFVISDEVYEHINFSQQGHASVLAHPQLRERAVAVSSFGKTYHMTGWKVGYCVAPAPISAEIRKVHQYLTFSVNTPAQLALADMLRAEPEHYLALPDFYRQKRDILVNALNESRLEILPCEGTYFLLVDYSAVSTLDDVEFCQWLTQEHGVAAIPLSVFCADPFPHKLIRLCFAKKESTLLAAAERLRQL`
1.95

The measured values listed here are drawn from the supplement of paper PMC11246515.
